test: GC retention time (DB-5MS, GC-APCI); higher = later elution
Quick rule: GC retention time of at least 20 min means 1, below that means -1.

* ClC1CCCC(Br)(Br)C(Cl)(C2=CCCC2)C(Cl)(Cl)C1(Cl)Cl (centres undefined) [Hexachlorocyclopentenyl-dibromocyclooctane] (APCI source condition: Dry, base ion: [M-CH4Cl2Br]+) | 1
* Clc1ccc(-c2ccccc2Cl)cc1 [PCB 7] (APCI source condition: Dry, base ion: M+.) | -1
* Brc1cc(Br)c(Oc2c(Br)cc(Br)c(Br)c2Br)cc1Br [PBDE 183] (APCI source condition: Dry, base ion: M+.) | 1
* c1cc2ccc3ccc4ccc5cccc6c(c1)c2c3c4c56 [Benzo(g,h,i)perylene] (APCI source condition: Dry, base ion: M+.) | 1
* Clc1ccc(Cl)c(-c2c(Cl)c(Cl)c(Cl)c(Cl)c2Cl)c1Cl [PCB 200] (APCI source condition: Dry, base ion: M+.) | 1
* Clc1cccc(-c2cccc(Cl)c2Cl)c1Cl [PCB 40] (APCI source condition: Dry, base ion: M+.) | -1
* Brc1cc(Br)c(Oc2cc(Br)c(Br)cc2Br)c(Br)c1 [PBDE 154] (APCI source condition: Dry, base ion: M+.) | 1
* c1ccc2c(c1)ccc1c3ccccc3ccc21 [Chrysene] (APCI source condition: Dry, base ion: M+.) | 1
* c1ccc2cc3c(ccc4ccccc43)cc2c1 [Benzo(a)anthracene] (APCI source condition: Dry, base ion: M+.) | 1
* Brc1ccc(Oc2cc(Br)c(Br)cc2Br)c(Br)c1 [PBDE 99] (APCI source condition: Dry, base ion: M+.) | 1
* c1ccc2cc3c(cc2c1)-c1cccc2cccc-3c12 [Benzo(k)fluoranthene] (APCI source condition: Dry, base ion: M+.) | 1
* CCCCCCCCCCCCCCC(F)(F)C(F)(F)C(F)(F)C(F)(F)C(F)(F)C(F)(F)C(F)(F)C(F)(F)C(F)(F)C(F)(F)C(F)(F)C(F)(F)F [1-(Perfluorododecyl)tetradecane] (APCI source condition: Dry, base ion: [M-H]+) | -1
